This collection of values is drawn from patent US20250270172A1.

target: 5-HT2A (Homo sapiens (Human), UniProt P28223); assay: HTRF IP-One antagonist assay, 5-HT2A; settings: HEK293 cells stably expressing receptor, inositol phosphate accumulation, 80 nM 5-HT in Assay Buffer;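 also: clonal line with low receptor density (about 50–70 fmol/mg), 10-point dose-response from 10 µM in 5-fold steps, HTRF detection after 1 hr, triplicate points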
Sequence (P28223 whole entry): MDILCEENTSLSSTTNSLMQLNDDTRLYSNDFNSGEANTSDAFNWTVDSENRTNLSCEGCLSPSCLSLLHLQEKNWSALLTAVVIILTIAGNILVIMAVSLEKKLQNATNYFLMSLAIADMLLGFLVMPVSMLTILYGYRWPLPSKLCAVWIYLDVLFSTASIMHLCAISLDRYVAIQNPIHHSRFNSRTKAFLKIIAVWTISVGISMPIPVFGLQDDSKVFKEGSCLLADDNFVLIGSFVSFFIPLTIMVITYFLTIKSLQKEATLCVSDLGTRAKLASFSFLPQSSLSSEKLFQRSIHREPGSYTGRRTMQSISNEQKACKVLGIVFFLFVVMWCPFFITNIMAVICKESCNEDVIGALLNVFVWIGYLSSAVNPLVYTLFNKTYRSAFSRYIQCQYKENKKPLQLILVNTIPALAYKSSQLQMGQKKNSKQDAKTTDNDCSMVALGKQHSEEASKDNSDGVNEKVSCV
pIC50: −log10 of the molar value.
Threshold check on pIC50: at or above 8 gives criterion met, strictly below gives criterion not met.

Task: Evaluate Cc1ncnc(C)c1-c1cc(NC(=O)[C@@H]2C[C@H]2F)ccc1O[C@@H]1CCCNC1 : pIC50 at minimum 8?
Output: criterion not met

Task: Say whether Cc1ncnc(C)c1-c1cc(NC(=O)C2(F)CC2)ccc1OCCN1CCC1 shows pIC50 of 8 or more.
Output: criterion met

Task: Check the entry Cc1ncnc(C)c1-c1cc(NC(=O)c2cc(F)ccn2)ccc1OCCN1CCCC1 : does pIC50 equal or exceed 8?
Output: criterion not met

Task: Is pIC50 at least 8? Consider CO[C@@H]1CCN(CCOc2ccc(NC(=O)C3CC3)cc2-c2c(C)ncnc2C)C1
Output: criterion not met

Task: Exam item: decide whether the reported pIC50 for Cc1ncc(CC(=O)Nc2ccc(OCCN3CCCC3)c(-c3c(C)ncnc3C)c2)s1 is at least 8.
Output: criterion met

Task: Evaluate COc1cccc(C(=O)Nc2ccc(OCCN3CCC3)c(-c3c(C)ncnc3C)c2)c1 : pIC50 at minimum 8?
Output: criterion met
